- Test system: SF-295 CNS
- ASSAY_EXPLANATION: NCI-60 one-dose screen, 48 h
- RUN_PARAMETERS: 10 µM unless noted
Compounds without any hit were thinned out: in the full panel of roughly 83,000, 20% have a hit. The source made the active and inactive calls. Rule for the calls: active = growth percent below 10; inactive = the rest.
Possible outcomes: active, inactive

INSERT INTO measurements (compound, answer_label) VALUES
  ('Cc1nn(-c2ccccc2)c2nc3c(nc12)C1=NCCN1C(c1ccc(Cl)cc1)N3 (centres undefined)', 'inactive'),
  ('O=C(Cc1ccc([N+](=O)[O-])cc1)Oc1ccccc1', 'inactive'),
  ('O=C1NN(C(=O)c2ccccc2)C(c2ccc(Cl)c(Cl)c2)=C/C1=C\c1ccccc1[N+](=O)[O-]', 'active'),
  ('CN1C(=O)N(C)C2C1NN=c1s/c(=C\c3ccc(Br)cc3)c(=O)n12 (centres undefined)', 'inactive'),
  ('Clc1cccc(CNc2c3ccccc3nc3ccccc23)c1', 'inactive'),
  ('Cc1nc(N)nc2c1CCC(Nc1ccccc1)S2 (centres undefined)', 'inactive'),
  ('COc1ccc(-c2nc3ccccc3n3cccc23)cc1', 'inactive'),
  ('C=C(COC(C)=O)[C@H]1CC/C(C)=C/CC/C(C)=C/CC[C@@]2(C)O[C@H]2C1', 'inactive'),
  ('Cn1cnc([N+](=O)[O-])c1S(=O)(=O)Oc1ccccc1', 'inactive'),
  ('O=S1(=O)NCCCN1CCNc1nccc(-c2c(-c3cccc(O)c3)nc3sccn23)n1', 'inactive'),
  ('CN(C)c1nc(-c2cccs2)n2nc(-c3ccco3)cc2n1', 'inactive'),
  ('CCOC(=O)C#Cc1c(C(=O)OCC)nnn1[C@@H]1O[C@H](COC(C)=O)[C@@H](OC(C)=O)[C@H]1OC(C)=O', 'inactive'),
  ('C=C[C@H]1CCC/C=C/[C@@H]2C[C@H](O)C[C@H]2[C@H](O)/C=C/C(=O)O1', 'inactive'),
  ('O=C(Nc1ccc(Br)cc1)c1ccc(Cl)c(Cl)c1', 'active'),
  ('CCOC(=O)Cn1c(-c2nonc2NC(=O)c2ccccc2F)nc2ccccc21', 'active'),
  ('CCOC(=O)C1C(=O)C=C(c2ccccc2)CC1c1sc(N(C)Cc2ccccc2)nc1Cl (centres undefined)', 'inactive'),
  ('Nc1nc(N)c2cc(NCc3ccc(Cl)c(Cl)c3)ccc2n1', 'active'),
  ('COc1cc(-c2nc(-c3ccc(-c4nc5ccc(F)cc5[nH]4)cc3)no2)cc(OC)c1OC', 'inactive'),
  ('C/C(=N\NC(=O)CSc1nc2ccccc2c(=O)n1CCc1ccc(S(N)(=O)=O)cc1)c1ccc(Br)cc1', 'inactive'),
  ('CC(C)(C)OC[C@@H]1N=C(c2ccc(Br)cc2)Nc2nc3ccccn3c2C1=O', 'inactive'),
  ('CC(C)CC(=O)C(CCc1ccccn1)C(C)C (centres undefined)', 'inactive'),
  ('CC1CCN(CCCCCOc2ccc3oc4ccc(Cl)cc4c(=O)c3c2)CC1', 'inactive'),
  ('O=C(CCCCCCN1CC(=O)N2[C@@H](c3ccc(Cl)c(Cl)c3)c3[nH]c4ccccc4c3C[C@H]2C1=O)NO', 'inactive'),
  ('O/N=C/c1ccncc1', 'inactive');

----------
- Test system: HCT-15 colon
- ASSAY_EXPLANATION: NCI-60 one-dose screen, 48 h
- RUN_PARAMETERS: 10 µM unless noted
Compounds without any hit were thinned out: in the full panel of roughly 83,000, 20% have a hit. Active and inactive are the calls of the source. Rule for the calls: active = growth percent below 10; inactive = the rest.
Possible outcomes: active, inactive

INSERT INTO assay_data (entry_smiles, answer_label) VALUES
  ('CN1C2CCC1/C(=C\c1ccc(Cl)cc1)C(=O)/C2=C/c1ccc(Cl)cc1', 'inactive'),
  ('COc1ccccc1CNCCCN1C(=O)c2ccc3c4c(ccc(c24)C1=O)C(=O)N(CCCNCCCN)C3=O', 'active'),
  ('CC(C)CCSc1nc(-c2ccc(F)cc2)c(C#N)c(N2CCCCC2)n1', 'inactive'),
  ('O=C1Nc2ccccc2/C1=C\c1nc(C2CCN(S(=O)(=O)c3ccc(F)cc3)CC2)n2ccccc12', 'inactive'),
  ('C#CCO[C@H]1CC[C@H](OCC#C)[C@@H]2[C@H]1[C@H]1C[C@@H]3[C@@]4(C)CCC[C@@](C)(C(=O)OC)[C@@H]4CC[C@@]23C=C1C(C)C', 'inactive');

----------
- System: SW-620 colon
- ASSAY_EXPLANATION: NCI-60 one-dose screen, 48 h
- RUN_PARAMETERS: 10 µM unless noted
The panel holds about 83,000 compounds, 20% with a hit somewhere; the sample as a whole holds those more often. Calls of active or inactive are those of the source. The calls were made as follows: active = growth percent below 10; inactive = the rest.
Possible outcomes: active, inactive

INSERT INTO assay_data (compound, tested_system, answer_label) VALUES
  ('CCCCSc1ncnc2c1ncn2C1CCCCO1 (stereo not given)', 'SW-620 colon', 'inactive'),
  ('C=C(c1ccc(C(=O)NCCCn2ccnc2)cc1)c1cc2c(cc1C)C(C)(C)CCC2(C)C', 'SW-620 colon', 'inactive'),
  ('Oc1c(C(Nc2cccc3ccccc23)c2ccccc2)ccc2cccnc12 (stereo not given)', 'SW-620 colon', 'inactive'),
  ('COc1cc(/C=C/c2cc(/C=C/c3ccc(O)c(OC)c3)n(C(=O)c3ccccc3Br)n2)ccc1O', 'SW-620 colon', 'inactive'),
  ('CCN(CC)CCCCCCCCNc1c2ccc(Cl)cc2nc2ccc(OC)cc12', 'SW-620 colon', 'active');

----------
The entries below are paired with their reported growth.
- System: HS 578T breast
- ASSAY_EXPLANATION: NCI-60 one-dose screen, 48 h (100 = growth as untreated, 0 = no growth, -100 = all killed)
- RUN_PARAMETERS: 10 µM unless noted
Compounds without any hit were thinned out: in the full panel of roughly 83,000, 20% have a hit.
REPORTED_ENDPOINT: growth (%)

INSERT INTO assay_data (compound, reported_result) VALUES
  ('NNc1ccc(S(N)(=O)=O)cc1', 110),
  ('CC1(C)CC(=O)c2cc3c(N)c(C(=O)Nc4ccc(Cl)cc4)sc3nc2C1', 109),
  ('COc1ccc(C(=O)C(CN(C)C)c2ccc(OC)cc2)cc1 (configuration not stated)', 92.2),
  ('CC1=C(O)C(=O)CC1', 107),
  ('COc1cc(NC(=O)CSc2nc3ccc(Cl)cc3c(=O)n2-c2ccccc2)cc(OC)c1OC', 81.5),
  ('N/C(=N\OC(=O)c1ccccc1)C(C(=O)NOC(=O)c1ccccc1)C1CCCCC1 (configuration not stated)', 26.7),
  ('COc1ccccc1-[n+]1cc(-c2ccc(-c3ccccc3)cc2)n2c1CCCCC2', 22.1);

----------
- Test system: LOX IMVI melanoma
- ASSAY_EXPLANATION: NCI-60 one-dose screen, 48 h
- RUN_PARAMETERS: 10 µM unless noted
About 83,000 compounds went through this panel and 20% of them were active in at least one assay; those are over-represented in the sample as a whole. The source made the active and inactive calls. The calls were made as follows: active = growth percent below 10; inactive = the rest.
Possible outcomes: active, inactive

INSERT INTO results (compound, answer_label) VALUES
  ('CO[C@H](C(=O)[C@@H](O)[C@@H](C)O)[C@@H]1Cc2cc3cc(O[C@H]4C[C@@H](O[C@H]5C[C@@H](O)[C@H](O)C(C)O5)[C@H](O)C(C)O4)c(C)c(O)c3c(O)c2C(=O)[C@H]1O[C@H]1C[C@@H](O[C@H]2C[C@@H](O[C@H]3C[C@](C)(O)C(=O)C(C)O3)[C@@H](O)C(C)O2)[C@H](O)C(C)O1 (stereo partly drawn)', 'active'),
  ('COc1ccc2[nH]cc(C3(c4c[nH]c5ccc(OC)cc45)C(=O)Nc4ccc(Cl)cc43)c2c1', 'inactive'),
  ('COc1ccccc1CNCCCN1C(=O)c2ccc3c4c(ccc(c24)C1=O)C(=O)N(CCCNCCCN)C3=O', 'active'),
  ('CCSc1cnnc2ccccc12', 'inactive'),
  ('CCOC(=O)C1C(=O)C=C(c2cc(OC)c(OC)c(OC)c2)CC1c1sc(N(C)Cc2ccccc2)nc1Cl (stereo not drawn)', 'inactive'),
  ('COc1cc2ncnc(Nc3ccc(S(=O)(=O)Nc4nccs4)cc3)c2cc1OCCCN1CCOCC1', 'inactive'),
  ('COc1ccc(C2c3cccn3-c3ccccc3N2C(C)=O)cc1 (stereo not drawn)', 'inactive'),
  ('CC(C)[C@@]12C[C@@H](OC(=O)C3CO3)[C@@](C)(O1)[C@@H]1CC[C@@H](C)[C@H]1[C@@H]2OC(=O)/C=C/c1ccccc1 (stereo partly drawn)', 'inactive'),
  ('CN(C)c1nc(-c2cccs2)n2nc(-c3ccco3)cc2n1', 'inactive'),
  ('Cc1nn(-c2ccccc2)c2nc3c(nc12)C1=NCCN1C(c1ccc(Cl)cc1)N3 (stereo not drawn)', 'inactive'),
  ('O=c1c2cc(Br)cc(Br)c2nc(-c2ccc(Cl)cc2)n1/N=C/c1cccc(F)c1', 'inactive'),
  ('COc1cc(C2CC(=O)Nc3c2cnn3C)cc(OC)c1OC (stereo not drawn)', 'inactive'),
  ('O=[N+]([O-])c1ccc(Sc2nc(Cl)nc(NC3CCCC3)n2)cc1', 'active'),
  ('CCN1C(=O)N(CC)C2C1NC(=O)N2/N=C/C=C/c1ccccc1 (stereo not drawn)', 'inactive'),
  ('CC(C)(C)c1ccc(OC(=O)Nc2ccccc2)cc1', 'inactive'),
  ('CC(C)CCC(=O)[C@@H](C)[C@H]1[C@@H](OC2OCC(O)C(O)C2NS(C)(=O)=O)C[C@H]2[C@@H]3CC=C4C[C@@H](O)CC[C@]4(C)[C@H]3CC[C@]12C (stereo partly drawn)', 'inactive'),
  ('O=S(=O)(Nc1ccc2ccccc2c1)N1CCCCC1', 'inactive'),
  ('Cc1ccccc1Nc1n[nH]c(Cc2ccccc2)n1', 'inactive'),
  ('CNC1=C([N+](=O)[O-])C(c2ccccc2O)C(C#N)=C(c2cccs2)O1 (stereo not drawn)', 'inactive'),
  ('COc1ccccc1CNCCCN1C(=O)c2ccc3c4c(ccc(c24)C1=O)C(=O)N(CCCCNCCCN)C3=O', 'active'),
  ('CCOC(=O)c1cnc(SCC)nc1SC#N', 'inactive'),
  ('Cc1ccc(C(CN(C)C)C(=O)c2ccccc2)cc1 (stereo not drawn)', 'active'),
  ('Cc1cc(-c2ccc(N=Nc3c(S(=O)(=O)O)cc4cc(S(=O)(=O)O)cc(O)c4c3O)c(C)c2)ccc1N=Nc1c(S(=O)(=O)O)cc2cc(S(=O)(=O)O)cc(O)c2c1O', 'inactive');
